System: K-562 cells;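 note: cellular ATP measured by luminescence after 4 days of exposure, 3-fold dilution series from 10 µM, DMSO vehicle-treated cells define 100%, cell-free medium wells −100%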
experimental-endpoint: GI50 (nM)

[[record]]
compound = "COc1ncccc1-c1nc2c([nH]1)C(c1ccc(Cl)cc1)N(c1cc(C)c3nnc(C(F)F)n3c1)C2=O (centres unmarked)"
study_system = "K-562 cells"
experimental_endpoint = "GI50"
reading = 180

[[record]]
compound = "Cc1cc(N2C(=O)c3nc(-c4ncco4)n(C(C)C)c3C2c2ccc(Cl)cc2)cn2c(C)nnc12 (centres unmarked)"
study_system = "K-562 cells"
experimental_endpoint = "GI50"
reading = 318

[[record]]
compound = "CCn1c(-c2ccc(OC)nc2)nc2c1C(=O)N(c1cc(C)c(=O)n(C)c1)[C@@H]2c1ccc(Cl)cc1"
study_system = "K-562 cells"
experimental_endpoint = "GI50"
reading = 72

[[record]]
compound = "Cc1nc2c([nH]1)C(c1ccc(Cl)cc1)N(c1cc(C)c3nnn(C)c3c1)C2=O (centres unmarked)"
study_system = "K-562 cells"
experimental_endpoint = "GI50"
reading = 160

[[record]]
compound = "Cc1cc(N2C(=O)c3nc(C4=CCN(C)CC4)[nH]c3C2c2ccc(Cl)cc2)cn(C)c1=O (centres unmarked)"
study_system = "K-562 cells"
experimental_endpoint = "GI50"
reading = 806

